- target.or.test.system: full length NS3/4a (Hepatitis C virus genotype 1b (isolate BK) (HCV))
- Sequence (P26663 1027-1657): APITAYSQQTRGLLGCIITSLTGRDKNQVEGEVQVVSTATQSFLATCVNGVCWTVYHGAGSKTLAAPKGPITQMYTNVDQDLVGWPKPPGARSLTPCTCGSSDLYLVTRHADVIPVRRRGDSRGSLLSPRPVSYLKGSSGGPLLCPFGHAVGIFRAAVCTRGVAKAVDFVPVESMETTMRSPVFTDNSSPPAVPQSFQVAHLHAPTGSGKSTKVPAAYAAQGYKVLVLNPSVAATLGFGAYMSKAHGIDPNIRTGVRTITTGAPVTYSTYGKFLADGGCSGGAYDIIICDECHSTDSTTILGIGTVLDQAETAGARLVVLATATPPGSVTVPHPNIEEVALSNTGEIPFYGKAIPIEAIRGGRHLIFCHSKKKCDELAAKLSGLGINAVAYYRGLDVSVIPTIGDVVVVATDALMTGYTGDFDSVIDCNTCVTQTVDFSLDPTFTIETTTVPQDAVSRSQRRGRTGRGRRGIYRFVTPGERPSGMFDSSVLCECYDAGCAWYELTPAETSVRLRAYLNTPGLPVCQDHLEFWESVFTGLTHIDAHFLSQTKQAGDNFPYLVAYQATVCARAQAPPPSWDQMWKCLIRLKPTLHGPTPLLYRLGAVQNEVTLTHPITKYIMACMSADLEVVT
- assay.name: NS3 Protease Assay (Example A), FRET-based
- Type: biochemical
- run.conditions: HCV NS3 protease assay, full length NS3/4a; read-out: Assay A IC50 (μM) average
parameter.measured: IC50
Number plus unit, in that order.

Example molecules with recorded IC50:
C[C@@H](CC(N)=O)N[C@@H](c1ccc(Cl)c(C(=O)c2ccc3c(c2)OCC(=O)N3)c1F)C1CC1    0.18 µM
CC[C@H](N[C@H](C)CC(N)=O)c1ccc(Cl)c(C(=O)c2ccccc2)c1F    0.061 µM

Quote full length NS3/4a (Hepatitis C virus genotype 1b (isolate BK) (HCV)) IC50 for entry C[C@H](CC(N)=O)N[C@@H](c1ccc(Cl)c(C(=O)c2ccc3c(c2)OCC(=O)N3)c1F)C1CC1 .
1.1 µM

Quote full length NS3/4a (Hepatitis C virus genotype 1b (isolate BK) (HCV)) IC50 for entry CC[C@H](N)c1ccc(Cl)c(C(=O)c2ccc(N)nc2)c1F .
0.18 µM

Quote full length NS3/4a (Hepatitis C virus genotype 1b (isolate BK) (HCV)) IC50 for entry C[C@H](CC(N)=O)N[C@@H](c1ccc(Cl)c(C(=O)c2ccc(N)nc2)c1F)C1CC1 .
1 µM

Quote full length NS3/4a (Hepatitis C virus genotype 1b (isolate BK) (HCV)) IC50 for entry CC[C@@H](NCc1cnc[nH]1)c1ccc(Cl)c(C(=O)c2cccnc2)c1F .
1.4 µM

Quote full length NS3/4a (Hepatitis C virus genotype 1b (isolate BK) (HCV)) IC50 for entry CC[C@@H](N[C@@H](C)CC(N)=O)c1ccc(Cl)c(C(=O)c2ccc(C#N)cc2)c1F .
0.066 µM

Quote full length NS3/4a (Hepatitis C virus genotype 1b (isolate BK) (HCV)) IC50 for entry CC[C@@H](N)c1ccc(Cl)c(C(=O)c2cc(C)on2)c1F .
1 µM
